Target: T1, yeast Smt3 (Smt3 6xHis) (yeast, UniProt Q12306 1-101 = SUMO)
T1 construct: Smt3 (SUMO), yeast; Uniformly 13C,15N labelled for the NMR experiments; also called SUMO; U-[13C,15N]; Smt3; source: E. coli BL21 (DE3)pLysS, purified (Ni-NTA)
T1 sequence (Q12306 whole entry): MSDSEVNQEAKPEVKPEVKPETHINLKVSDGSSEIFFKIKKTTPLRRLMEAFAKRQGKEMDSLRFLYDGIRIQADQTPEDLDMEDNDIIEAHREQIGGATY
Assay: ITC; 2 mM peptide in the syringe, 150 μM or 300 μM Smt3 in the cell; 20 mM NaPi 100 mM NaCl pH 7.5, 10% DMSO, 25°C; single binding site model
Conditions: both partners purified
property: Kd

• ENDIIMVSTDE [synthetic Mre11-SIM3 peptide, wild type] = 20 µM
